- System: MDA-MB-231 and HCT116 cell lines
- experiment: Growth inhibition screen, 3 day exposure, relative DNA content
- experimental.context: 72 h, read-out: Drug Effect (avg) (10 μM)
test.readout: inhibition at 10 µM (%)
# unit: % | format: bare number

For orientation, consider the following solved cases.
CCC(C)(C)c1ccc(OCCCCNC(=O)c2cc(Oc3ccc([N+](=O)[O-])cc3)c3ccccc3c2O)c(C(C)(C)CC)c1	39.8
CCOC(=O)C(NC(=O)CN[C@H]1CCCc2sccc21)C(=O)OCC	53.1
CCOC(=O)C[C@@H](CC(=O)NCCN[C@H](C)c1ccc(O)c(C(=O)OC)c1)OC(C)=O	9.6
CC(NCCCCCO)c1cc(OCc2ccccc2)cc(OCc2ccccc2)c1 (centres unmarked)	3.6

Req: inhibition at 10 µM for CCCCCCCCCCCCCCCC(=O)N[C@@H](CCCCN)C(=O)N[C@@H](CCCCN)C(=O)OC ?
Resp: -8.9

Req: inhibition at 10 µM for OC(COc1ccc(OCC(O)CN2CCN(C3c4ccccc4-c4ccccc43)CC2)cc1)CN1CCN(C2c3ccccc3-c3ccccc32)CC1 (centres unmarked) ?
Resp: 88

Req: inhibition at 10 µM for CCCCCCCCCCCCCCNC(=O)[C@@H](N)CCN ?
Resp: 69

Req: inhibition at 10 µM for CCCOc1ccc(C(=O)OCCN(CC)CC)cc1NS(=O)(=O)/C=C/c1ccccc1 ?
Resp: 4.3
